measurement.target: T1, PVRIG (FACS-based competition assay of FIGS. 7 and 15) (Homo sapiens, UniProt Q6DKI7)
T1 construct: made because the format of the assay is only described in U.S. Ser. No. 15/048,967; also called human PVRIG
T1 sequence (receptor, looked up): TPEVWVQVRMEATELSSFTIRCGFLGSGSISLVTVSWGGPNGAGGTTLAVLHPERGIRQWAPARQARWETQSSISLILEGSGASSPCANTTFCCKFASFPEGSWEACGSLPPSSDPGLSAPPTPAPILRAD
protocol.notes: FACS-based competition assay of PVRIG blocking; format and competitor not given
Provide the recorded IC50 for the entries that follow.
Numbers only, in nM.

{"binder": "CHA.7.518 (antibody, V domains shown) VH: EVQLQQSGPELVKPGASVKISCKASGYTFTDYNINWVKQSHGKSLEWIGYIYPYIGGSGYNQKFKSKATLSADNPSSTAYMELRSLTSEDSAVYYCAREDKTARNAMDYWGQGTPVTVSS VL: DIQMTQSPASLSVSVGETVTIICRVSENIYSNLAWYQQKQGKSPQLLVYEATNLAEGVPSRFSGSGSGTQYSLKINSLQSEDFGSYYCQHFWGTPYTFGGGTKLEIK", "IC50 [nM]": 23.1}

--- query ---
Consider CHA.7.530 (antibody, V domains shown) VH: QVQLQQSGAELMRPGTSVKVSCKASGYAFTNHLIEWIKQRPGQGLEWIGVINPGSDSTDYNEKFKDKATLTADKSSSTAYMQLSSLTSDDSAVYFCARSLYYNSWFVYWGQGTLVTVSA VL: DIQMTQSPASLSASVGETVTITCRASENIYSYLAWYQQKRGKSPQLLVYNAKTLVEGVPSRFSGSGSGTQFSLKINSLQPEDFGSYYCQHHYGTPYTFGGGTKLEIK . Its measured IC50 is 34.6
